- assayNotes: Half life in Sprague-Dawley rat liver microsomes at 0.5 uM preincubated for 10 mins before NADPH and UDPGA challenge
- Type: ADME, Microsome
parameterMeasured: half-life at 0.5 µM (min)

1. COc1cc(C2CCN(CCO)CC2)ccc1Nc1ncc2ccc(-c3ccccc3N(C)S(C)(=O)=O)n2n1
2. COc1cc(C2CCN(CC(N)=O)CC2)ccc1Nc1ncc2c(C)cc(-c3ccccc3N(C)S(C)(=O)=O)n2n1
Sorting by half-life at 0.5 µM in descending order, would 1 or 2 appear first? Answer = label.
2
(2: 31 min, 1: 21 min)

====

- assayNotes: AUC (0 to t) in SCID mouse at 1 mg/kg, iv
- Type: ADME, organism-based
- Set-up: dose 1 mg/kg, route intravenous
- assayContext: plasma
parameterMeasured: AUC(0-t) (ng·h/mL)
Report only the number, with the unit ng·h/mL understood.

Please look up its AUC(0-t): `COc1cc(C2CCN(CC(N)=O)CC2)ccc1Nc1ncc2ccc(-c3ccccc3OC)n2n1`
7550
